experiment: Stability in human plasma assessed as compound remaining incubated for 120 mins by LC-MS/MS analysis; type: ADME, cell-free; settings: read-out: Stability

sample_smiles: CN1CCN(c2ccc(C(=O)Nc3n[nH]c4c3CN(Cc3cc(F)cc(F)c3)C4(C)C)cc2)CC1
remaining at 2 h, %: 101

----------
assay: Stability in human plasma assessed as compound remaining incubated for 10 mins by LC-MS/MS analysis; type: ADME, cell-free; conditions: read-out: Stability
experimental_endpoint: remaining at 10 min (%)

sample_smiles: CN1CCN(c2ccc(C(=O)Nc3n[nH]c4c3CN(Cc3cc(F)cc(F)c3)C4(C)C)cc2)CC1
meas_value: 96.8
